Where do the numbers come from? From paper PMC11901676.

- Test system: HFM-RhaC
- Construct: recombinant in E. coli BL21(DE3), Ni-NTA purified
- test: HPLC initial rates, Michaelis-Menten fit
- Format: biochemical, metagenome: human feces
- condition.parameters: 50 mM sodium phosphate pH 6.0, 37 °C, 5 min

{"structure": "C[C@@H]1O[C@@H](OC[C@H]2O[C@@H](Oc3c(-c4ccc(O)c(O)c4)oc4cc(O)cc(O)c4c3=O)[C@H](O)[C@@H](O)[C@@H]2O)[C@H](O)[C@H](O)[C@H]1O", "Km": "5050 µM"}
{"structure": "COc1ccc([C@@H]2CC(=O)c3c(O)cc(O[C@@H]4O[C@H](CO[C@@H]5O[C@@H](C)[C@H](O)[C@@H](O)[C@H]5O)[C@@H](O)[C@H](O)[C@H]4O)cc3O2)cc1O", "Km": "2160 µM"}
{"structure": "C[C@@H]1O[C@@H](O[C@H]2[C@H](Oc3cc(O)c4c(c3)O[C@H](c3ccc(O)cc3)CC4=O)O[C@H](CO)[C@@H](O)[C@@H]2O)[C@H](O)[C@H](O)[C@H]1O", "Km": "2290 µM"}
{"structure": "COc1ccc([C@@H]2CC(=O)c3c(O)cc(O[C@@H]4O[C@H](CO)[C@@H](O)[C@H](O)[C@H]4O[C@@H]4O[C@@H](C)[C@H](O)[C@@H](O)[C@H]4O)cc3O2)cc1O", "Km": "3250 µM"}
